# System: MS2 coat protein
# experiment-summary: apparent KD of MS2 coat protein; designed switch direction (-1 OFF switch, 1 ON switch): -1; higher = weaker reporter binding
# experimental-conditions: input ligand: none
Reported apparent KD of MS2 coat protein values for a set of sequences
Provide the reading as a plain figure in nM.

In the examples that follow, each entry is paired with its recorded apparent KD of MS2 coat protein.
AAAUUAGCAAGUAGAUCCGACAUGAGGAUCACCCAUGUUAUCUGAAAGAACGCAGCAUAAUUGUGAGCUCGUCUAAA [Sensor-V1 #4] (Eterna round: R97, puzzle: Sensor, turn-off variant 1): 91.5
UGUUCGUCAGGAUAUUCUACUUAUUACAUGAGGAUCACCCAUGUGUAUGUACAAGGGUGUGAAGAAGGGACUUGUC [LRO-Excl5-07-mod A17d by Omei] (Eterna round: R97, puzzle: Exclusion 5): 1240

Find apparent KD of MS2 coat protein (MS2 coat protein) for the entry GGUACUCAAAGAGUACCAAUACGAACAUGAGGAUCACCCAUGUAGGAUAUGCUACUCAAAGAGUAGCAGAAGGAUAUGAACCUU [Far Half Aptamer v9] (Eterna round: R96, puzzle: Exclusion NG 3) 23.8

----------
Let's look at some sequences and their measured apparent KD of MS2 coat protein.
# Test system: MS2 coat protein
# experiment-summary: apparent KD of MS2 coat protein; designed switch direction (-1 OFF switch, 1 ON switch): -1; higher = weaker reporter binding
# experimental-conditions: Eterna round: R95; input ligand: microRNA oligo, concentration not stated

CUAGUCCGAGGAUAUAUUAUGUGAUACAUGAGGAUCACCCAUGUUAUAUGAUGGAUGUUAAUAGAAGGCGGACUAG [Mat - Exclusion 5 - JL mod - D72] (puzzle: Exclusion 5): 118 nM
CCAUCGAGUGUGAGGAUAUGCUGGUCCUUGGAUCAGCAGAAGGCACAUGAGGAUCACCCAUGUGGAAACGGUGG [Mat - Exclusion 4 - JL Mod - D77] (puzzle: Brourd's mod of Exclusion 4): 27.7 nM
UAAAAUAGUGUGAGGAUAUGCUGGUCCUUGGAUCAGCAGAAGGCACAUGAGGAUCACCCAUGUAGUUAAUAAUA [Mat - Exclusion 4 - JL Mod - D25] (puzzle: Brourd's mod of Exclusion 4): 36.8 nM
AGAUGUAGAAACCGAUCCUACAUGAGGAUCACCCAUGUAGCAAGACGUGCACGCGAAGCUCGUCAGACUACCAGAAG [salish99_TOv1_r3_082] (puzzle: Sensor v3, turn-off variant 1): 188 nM
AGGAAGCAAGGAUAUACGAGGAGAAGGUGUCCAUCUAAAUGACAUGAGGAUCACCCAUGUAGAAGGUGCGAGAA [JR_Exclu2_Sub050] (puzzle: Exclusion 2): 47.4 nM

What value of apparent KD of MS2 coat protein has been reported for the following sequence? AAUGGGUGUGUGAGGAUAUACGAAGGCAAUUGCCAGUAGAAGGUACAUGAGGAUCACCCAUGUGUCCAAAAGAG [Tititemaon] (puzzle: Brourd's mod of Exclusion 4) 9.11 nM

----------
# System: K4 kissing-loop RNA reporter;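 note: bound reporter read as fluorescence of individual clusters on recovered sequencing chips by microscopy, with normalized cluster intensities fitted with a binding model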
# experiment-summary: apparent KD of K4 kissing-loop reporter; higher = weaker reporter binding
# experimental-conditions: Eterna round: R107; input ligand: tryptophan 2.4 mM
Is apparent KD of K4 kissing-loop reporter at least 100 nM? Then true (1). If not, false (0).

UCCUAGGCUCGAAAGAGCCUAGGAUUUACUCAGGAUAUCCGGAAACGGAGAAGGGAGUGACUAGUGAUGUUAGGGACUCCCUAUU: false (0)
CCUGCUACGUAAGGAUAUGGAAAUGAGUGAUGUUUAGAGAUAUGGUCCAGGUUUAGUCAUCAUAGACCAGAAGGUACAUCGGGCG [theeternabot_exclusion_KL_FMN_B_8]: true (1)
CCGAUACAUUAUUCUACGGCCGAGAGUGAUACCAGCCAUAUUUAUGGCCCUUGGCAGCGCAGAUGCAGUGAUGUUGCAUACUUAC [Same State Theophylline A GF 19]: false (0)
UGUACCGAGUCAGGAUAUGGCGUCGAAAGACGAAUUCUAGUGAUGUUAGGGAUCUGCGAAAGCAGUCCAGAAGGGACUUGGUACU [FmnBS 26 U36]: true (1)
UUGGUCUUUUAAGGAUAUCAUACUCCACUGAGCGAGUGAUGUUCGCUCCUGUUACGCCUGGGACCGUGAGAAGGUAAAGUACCGU [theeternabot_sameState_KL_FMN_B_5]: true (1)
UCUGUUGUAUAUGAUACCAGCAGUGAGAGACAGGAAGUAUAGUGAUGUUAUAUGAGAGAAUGCCCUUGGCAGCGUGUGCGGUUGG [SSTheophylB.W]: true (1)

Confirm if apparent KD of K4 kissing-loop reporter reported for the sequence UCCUUUUUUGCCAGUGAUGUUGGACAGGAAGGAGCGGGCAUAAGCCCAGGUAGGUCGCCUGUCAACUUUCUUAUAGCCCUAAGGU [Edveza] is 100 nM or above. true (1)

Is apparent KD of K4 kissing-loop reporter at least 100 nM? Consider CGACGGAGUGAUGUUUCGUGGUAUGCUGAUACCAGAUGAAACAGCGUCCCUUGGCAGCAGCAUACGCCAAGGAUAAUAUCCUAGU [Theo B SS t6] true (1)

I'd appreciate it if you could say whether UGUGGAGGAUAUGAUACCAGCAGUGAGAGAGAGGAAGUAUAGUGAUGUUAUAUGAGAGAAUGCCCUUGGCAGCGUGUGUAGUGGG [SSTheophylB.K] has apparent KD of K4 kissing-loop reporter at least equal to 100 nM. true (1)

Reference source for all entries: the supplement of paper PMC9170038
